Test system: Scedosporium prolificans
Experiment: Antifungal activity in vitro, resazurin growth inhibition: Scedosporium prolificans (IHEM21157)
Format: cell-based
Protocol: The standard susceptibility screen is performed in 96-well plates (U-bottom, Greiner Bio-One). Serial dilutions (2-fold or 4-fold) of 20 mM compound stock solutions are made in 100% DMSO, followed by an intermediate dilution step in water. These serial dilutions (10 μl) are then spotted onto test-plates that can be stored in the dark at 4° C. for a maximum period of 2 weeks. An adequate broad dose-range is included with 64 μM as the highest in-test concentration. […]
endpoint: Inf. I: Scedosporium prolificans IHEM21157, pIC50

CCc1ccc(C2=NCc3c(Cl)cccc3-n3cccc32)cn1 [Compound 74] : 6.88

[a] CC(F)(F)c1ccc(C2=NCc3c(Cl)cc(F)cc3-n3cccc32)cn1 [Compound 85]
[b] Clc1cccc2c1CN=C(c1cnc3c(c1)CCC3)c1cccn1-2 [Compound 105]
// pick larger Inf. I: Scedosporium prolificans IHEM21157, pIC50 from pair: a vs b Lab note: record the label of whichever item you select.
b
(b: 8.00, a: 4.81)

====

Listing: Inf. D: Candida parapsilosis B66126, pIC50 of selected compounds
Test system: Candida parapsilosis
Experiment: Antifungal activity in vitro, resazurin growth inhibition: Candida parapsilosis (B66126)
Type: cell-based

Consider the following illustrative entries.
Cc1cccc2c1CN=C(c1cc3ccccc3o1)c1cccn1-2 : 4.70
Cl.Clc1cc(Cl)c2c(c1)-n1cccc1C(c1cc3ccccc3o1)NC2 (racemic) : <4.19
Fc1cccc2c1CN=C(c1ccc3sc(C(F)(F)F)nc3c1)c1cccn1-2 : <4.19
CC(C)n1ccc(C2=NCc3c(Cl)cccc3-n3cccc32)cc1=O : 5.12
Clc1cccc2c1-n1cccc1C(c1ccc3sccc3c1)=NC2 : <4.19
Cc1ncc(C2=NCc3c(Cl)cccc3-n3cccc32)cn1 : <4.19
CC(F)(F)c1ccc(C2=NCc3c(Cl)cccc3-n3cccc32)cn1 : 5.285
Clc1ccc2c(c1)-n1cccc1C(c1cnc3ccccc3c1)=NC2 : <4

Would you kindly share the measured Inf. D: Candida parapsilosis B66126, pIC50 for Cc1cccc2c1-n1cccc1C(c1cc3ccccc3o1)NC2.Cl (racemic) ?
<4.19

====

Tested on: Scedosporium apiospermum
Experiment: Antifungal activity in vitro, resazurin growth inhibition: Scedosporium apiospermum (IHEM3817)
Type: cell-based
Conditions: read-out: Inf. H: Scedosporium apiospermum IHEM3817, pIC50 (converted)
endpoint: IC50 (µM)

Here are 3 compounds together with their reported answers.
Cc1cccc2cc(C3=NCc4c(Cl)cccc4-n4cccc43)oc12 [Compound 7] : 0.513
FC(F)(F)c1cc(C2=NCc3c(Cl)cccc3-n3cccc32)ccn1 [Compound 3] : 2.14
Cc1cccc2c1CN=C(c1cc3ccccc3s1)c1cccn1-2 [Compound 2] : 0.525

[P] Clc1cccc2c1CN=C(c1ccc3occc3c1)c1cccn1-2 [Compound 8]
[Q] Clc1cccc2c1CN=C(c1ccc3sccc3c1)c1cccn1-2 [Compound 9]
[R] Clc1cccc2c1-n1cccc1C(c1cc3ccccc3o1)=NC2 [Compound 5]
Returns the items ordered by IC50, from maximum to minimum. Ranked list of labels, please, in the requested order.
P, R, Q
(P: 10.2 µM, R: 6.03 µM, Q: 0.55 µM)

====

Tested on: Trichophyton rubrum
Assay: Antifungal activity in vitro, resazurin growth inhibition: Trichophyton rubrum (B68183)
Type: cell-based
endpoint: Inf. C: Trichophyton rubrum B68183, pIC50

CC(=O)c1ccc(C2=NCc3c(F)cccc3-n3cccc32)cn1 [Compound 93] : 6.16
Cc1cccc2c1CN=C(c1ccc3ncsc3c1)c1cccn1-2 [Compound 183] : 6.68
Clc1cc(C2=NCc3c(Cl)cccc3-n3cccc32)cnc1Cl [Compound 79] : 6.33
CC(C)n1ccc(C2=NCc3c(Cl)cccc3-n3cccc32)cc1=O [Compound 70] : 6.99
Clc1cc(Cl)c2c(c1)-n1cccc1C(c1cc3ccccc3s1)=NC2 [Compound 168] : 6.18
COc1cccc2cc(C3=NCc4ccccc4-n4cccc43)oc12 [Compound 157] : 6.58
Clc1cccc2c1CN=C(c1cccnc1)c1cccn1-2 [Compound 199] : 5.00
Clc1cccc2c1-n1cccc1C(c1ccc3sccc3c1)=NC2 [Compound 174] : 6.87
Fc1cccc2cc(C3=NCc4c(Cl)cccc4-n4cccc43)oc12 [Compound 127] : 6.94

====

Test system: Scedosporium apiospermum
Assay: Antifungal activity in vitro, resazurin growth inhibition: Scedosporium apiospermum (IHEM3817)
Type: cell-based
endpoint: Inf. H: Scedosporium apiospermum IHEM3817, pIC50

CC(F)(F)c1ccc(C2=NCc3c(F)cc(F)cc3-n3cccc32)cn1 : 4.43
Fc1cccc2cc(C3=NCc4c(Cl)cccc4-n4cccc43)oc12 : 4.80
Cc1ccc2cc(C3=NCc4ccccc4-n4cccc43)oc2c1 : 5.16
Cc1ccc2cc(C3=NCc4c(C)cccc4-n4cccc43)oc2c1 : 5.35
CC(C)n1ccc(C2=NCc3c(Cl)cccc3-n3cccc32)cc1=O : 5.68

====

Measured melting point of individual entries

Consider the reported melting point for these molecules:
Clc1cccc2c1CN=C(c1ccc3occc3c1)c1cccn1-2 [Compound 8] : 163.9 to 164.1 °C
Cc1cccc2c1CNC(c1cc3ccccc3s1)c1cccn1-2.Cl (centres unmarked) [Compound 1] : 242.4 to 247.7 °C
Cc1cccc2cc(C3=NCc4c(Cl)cccc4-n4cccc43)oc12 [Compound 7] : 175.2 to 177.3 °C
Clc1cccc2c1-n1cccc1C(c1cc3ccccc3o1)=NC2 [Compound 5] : 159.9 to 160.8 °C

Consider now this further molecule.
Recorded melting point for FC(F)(F)c1cc(C2=NCc3c(Cl)cccc3-n3cccc32)ccn1 [Compound 3] , please?
158.2 to 160.6 °C

====

Collected Inf. A: Sporothrix schenkii B62482, pIC50 values appear next to each entry.
System: Sporothrix schenkii
Experiment: Antifungal activity in vitro, resazurin growth inhibition: Sporothrix schenkii (B62482)
Format: cell-based

Consider the reported Inf. A: Sporothrix schenkii B62482, pIC50 for these compounds:
Cl.Fc1cccc2c1CNC(c1ccc(C(F)(F)F)nc1)c1cccn1-2 (racemic) : <4.19
COc1ccc2oc(C3=NCc4ccc(Cl)cc4-n4cccc43)cc2c1 : <4.19
Cl.Clc1cc(Cl)c2c(c1)-n1cccc1C(c1cc3ccccc3s1)NC2 (racemic) : <4.19
Fc1cccc2c1CN=C(c1ccc3scnc3c1)c1cccn1-2 : <4.19

Request body: readout Inf. A: Sporothrix schenkii B62482, pIC50, system Sporothrix schenkii, query Fc1cc(F)c2oc(C3=NCc4c(Cl)cc(Cl)cc4-n4cccc43)cc2c1 . Return the value.
<4.19

Another compound to look at: FC(F)(F)c1nc2cc(C3=NCc4c(Cl)cccc4-n4cccc43)ccc2s1
<4.19

Would you kindly repeat that for Cl.Clc1cccc2c1CNC(c1nc3ccccc3s1)c1cccn1-2 (racemic) ?
4.85

Another: CCc1csc(C2=NCc3c(Cl)cccc3-n3cccc32)n1
<4.19

And Clc1cc2cc(C3=NCc4c(Cl)cccc4-n4cccc43)ccc2o1 ?
5.66

Cool, now Cc1ccc2cc(C3NCc4c(Cl)cc(Cl)cc4-n4cccc43)oc2c1.Cl (racemic)
<4.19

Also COc1cccc2cc(C3=NCc4ccc(Cl)cc4-n4cccc43)oc12 , if possible.
<4.19

Next up: Br.CCn1ccc(C2NCc3c(Cl)cccc3-n3cccc32)n1 (racemic)
<4.19

Also, COc1ccc2oc(C3NCc4c(Cl)cc(Cl)cc4-n4cccc43)cc2c1.Cl (racemic) please.
<4.19

Proceed to c1ccc2c(c1)CN=C(c1ccc3ncsc3c1)c1cccn1-2
<4.49

What would you report for Clc1cccc2c1CN=C(c1cc3ccccc3s1)c1cccn1-2 ?
5.12

Same lookup for Cc1ccc2oc(C3=NCc4c(Cl)cc(Cl)cc4-n4cccc43)cc2c1 , please.
<4.19

// query: Cc1ccc2cc(C3=NCc4c(Cl)cc(Cl)cc4-n4cccc43)oc2c1
<4.19

Continue with Fc1cccc2c1CN=C(c1ccc3occ(Cl)c3c1)c1cccn1-2
<4.19

Please do the same for Cc1nc2ccc(C3=NCc4c(Cl)cccc4-n4cccc43)cc2o1 as well.
4.22

Also Cc1cccc(C2NCc3c(Cl)cccc3-n3cccc32)n1 (racemic) , if possible.
4.59

Another compound: CCc1nc(C2=NCc3c(Cl)cccc3-n3cccc32)cs1
<4.19

Also need Cc1cccc2c1CN=C(c1cc3cc(Cl)ccc3o1)c1cccn1-2 , thanks.
5.42

Record: Cl.Clc1cccc2c1CNC(c1cc3ccccc3o1)c1cccn1-2 (racemic)
4.89

====

Test system: Candida parapsilosis
Assay: Antifungal activity in vitro, resazurin growth inhibition: Candida parapsilosis (B66126)
Type: cell-based
Conditions: Lodderomyces parapsilosis, read-out: Inf. D: Candida parapsilosis B66126, pIC50 (converted)
endpoint: IC50 (µM)

[1] Cc1cccc2cc(C3=NCc4c(Cl)cccc4-n4cccc43)oc12
[2] Clc1cccc2c1CN=C(c1ccc3occc3c1)c1cccn1-2
Which shows the larger IC50 value: 1 or 2 ? Respond with the label that goes with your answer.
1

Values compiled from patent US9493468B2.
